# Tested on: GlcNAc(b1-4)GlcNAc(b1-4)GlcNAc
# Assay method text: glycan array binding signal (z-score within array); higher = stronger binding
# Condition info: glycan notation: IUPAC condensed, linker removed
This excerpt belongs to a sample that is enriched for the strongest signals.
Measured glycan array binding signal (z-score), listed per entry for reference.

Look up glycan array binding signal (z-score) of MGL (Homo sapiens), Q8IUN9 (protein) MTRTYENFQYLENKVKVQGFKNGPLPLQSLLQRLCSGPCHLLLSLGLGLLLLVIICVVGFQNSKFQRDLVTLRTDFSNFTSNTVAEIQALTSQGSSLEETIASLKAEVEGFKQERQAGVSELQEHTTQKAHLGHCPHCPSVCVPVHSEMLLRVQQLVQDLKKLTCQVATLNNNASTEGTCCPVNWVEHQDSCYWFSHSGMSWAEAEKYCQLKNAHLVVINSREEQNFVQKYLGSAYTWMGLSDPEGAWKWVDGTDYATGFQNWKPGQPDDWQGHGLGGGEDCAHFHPDGRWNDDVCQRPYHWVCEAGLGQTSQESH and report it. -0.253

Output measured glycan array binding signal (z-score) for this item: TbCVNHOb (Tuber borchii) (protein) GSHIGPYMSFYASSEDVRTIEEGGRTWLVGRARRADGSWQDIKLDLDNIIGNRDGHLTWGEQNFTQSASDIRFNFEGGSNVPVLRAKLRNAAGGEQESDLNLGERLTNNNGDLVFN -0.364

Others:
Give recorded glycan array binding signal (z-score). Gal 4 (Mus musculus), P56470 (protein) MAYVPAPGYQPTYNPTLPYYQPIPGGLNVGMSVYIQGVASEHMKRFFVNFVVGQDPGSDVAFHFNPRFDGWDKVVFNTLQGGKWGSEERKRSMPFKKGAAFELVFIVLAEHYKVVVNGNPFYEYGHRLPLQMVTHLQVDGDLQLQSINFIGGQPLRPQGPPMMPPYPGPGHCHQQLNSLPTMEGPPTFNPPVPYFGRLQGGLTARRTIIIKGYVPPTGKSFAINFKVGSSGDIALHINPRMGNGTVVRNSLLNGSWGSEEKKITHNPFGPGQFFDLSIRCGLDRFKVYANGQHLFDFAHRLSAFQRVDTLEIQGDVTLSYVQI -0.23

Let me know recorded glycan array binding signal (z-score) for RegIIIgamma (Mus musculus), O09049 (protein) MLPRITITIMSWMLLSCLMLLSQVQGEVAKKDAPSSRSSCPKGSRAYGSYCYALFSVSKNWYDADMACQKRPSGHLVSVLSGAEASFLSSMIKSSGNSGQYVWIGLHDPTLGYEPNRGGWEWSNADVMNYINWETNPSSSSGNHCGTLSRASGFLKWRENYCNLELPYVCKFKA , thanks. -0.185

Data origin: the supplement of paper PMC8728848
